Kindly supply the reported MIC values for the records listed here.
system: Streptococcus pneumoniae; assay: Antimicrobial activity against penicillin-sensitive Streptococcus pneumoniae ATCC 49619 after 14 to 16 hrs by serial microbroth dilution method; format: functional
Numbers only, in µg/mL.

>  <Compound>
CCCCCCC/C(C)=C/C(=O)/C=C1\NC(=O)C(CCCC)O1 (centres undefined)

>  <MIC [µg/mL]>
2.6

$$$$
>  <Compound>
CCCCCC/C(C)=C/C(=O)/C=C1\NC(=O)C(CCCC)O1 (centres undefined)

>  <MIC [µg/mL]>
10

$$$$

Next, consider the following compound.
What does the data say about its MIC? Entry: CCCCCCC/C(C)=C/C(=O)/C=C1\NC(=O)C(CCCCC)O1 (centres undefined)
8

---

Kindly supply the reported MIC values for the records listed here.
tested on: Haemophilus influenzae; experiment: Antimicrobial activity against Haemophilus influenzae ATCC 49766 after 14 to 16 hrs by serial micro-broth dilution method; assay type: functional

>  <Compound>
CCCCCCC/C(C)=C/C(=O)CC(=N)OC(CCCC)C(=O)O (stereo not given)

>  <MIC>
> 32 µg/mL

$$$$
>  <Compound>
CC(=O)NC[C@H]1CN(c2ccc(N3CCOCC3)c(F)c2)C(=O)O1 [LINEZOLID]

>  <MIC>
12 µg/mL

$$$$
>  <Compound>
CCCCCCC/C(C)=C/C(=O)/C=C1\NC(=O)C(CCCC)O1 (stereo not given) [LIPOXAZOLIDINONE A]

>  <MIC>
12 µg/mL

$$$$
>  <Compound>
CCCCCCC/C(C)=C/C(=O)/C=C1\NC(=O)C(CCCCC)O1 (stereo not given) [LIPOXAZOLIDINONE B]

>  <MIC>
16 µg/mL

$$$$

Request: MIC, test system Haemophilus influenzae, entry CCCCCC/C(C)=C/C(=O)/C=C1\NC(=O)C(CCCC)O1 (stereo not given) [LIPOXAZOLIDINE C]
5 µg/mL

---

test system: Staphylococcus aureus; assay: Antimicrobial activity against methicillin-sensitive Staphylococcus aureus ATCC 29213 after 14 to 16 hrs by serial micro-broth dilution method; assay type: functional
Measurement label: MIC
Answer format: number, then unit.

Examples with their reported MIC follow.
>  <Molecule>
CCCCCC/C(C)=C/C(=O)/C=C1\NC(=O)C(CCCC)O1 (centres undefined) [LIPOXAZOLIDINE C]

>  <MIC>
4 µg/mL

$$$$
>  <Molecule>
CCCCCCC/C(C)=C/C(=O)/C=C1\NC(=O)C(CCCCC)O1 (centres undefined) [LIPOXAZOLIDINONE B]

>  <MIC>
6 µg/mL

$$$$
>  <Molecule>
CCCCCCC/C(C)=C/C(=O)CC(=N)OC(CCCC)C(=O)O (centres undefined)

>  <MIC>
24 µg/mL

$$$$

Next, consider the following molecule.
Request: MIC, test system Staphylococcus aureus, entry CCCCCCC/C(C)=C/C(=O)/C=C1\NC(=O)C(CCCC)O1 (centres undefined) [LIPOXAZOLIDINONE A]
0.9 µg/mL

---

system: Enterococcus faecalis; assay: Antimicrobial activity against vancomycin-sensitive Enterococcus faecalis ATCC 29212 after 14 to 16 hrs by serial microbroth dilution method; format: functional
Measurement label: MIC (µg/mL)
Answers are plain numbers, in µg/mL.

Examples with their reported MIC follow.
>  <Compound>
CCCCCCC/C(C)=C/C(=O)CC(=N)OC(CCCC)C(=O)O (centres undefined)

>  <Experimental result>
32

$$$$
>  <Compound>
CCCCCCC/C(C)=C/C(=O)/C=C1\NC(=O)C(CCCC)O1 (centres undefined) [LIPOXAZOLIDINONE A]

>  <Experimental result>
1

$$$$
>  <Compound>
CCCCCC/C(C)=C/C(=O)/C=C1\NC(=O)C(CCCC)O1 (centres undefined) [LIPOXAZOLIDINE C]

>  <Experimental result>
2

$$$$

Next, consider the following compound.
What does the data say about its MIC? Entry: CCCCCCC/C(C)=C/C(=O)/C=C1\NC(=O)C(CCCCC)O1 (centres undefined) [LIPOXAZOLIDINONE B]
3
